Tested on: Yellow Fever Mosquito (Aedes aegypti, AEDSAE)
Assay type: in vivo
Measurement Setup: about 1 day-old larvae, master plate 4000 ppm solution diluted, room temperature, scored after 3 days
Parameter: YFM % Control (or Mortality) rating

// known answers, use as guide
>  <Molecule>
CC(C)c1ccccc1N1C(=O)CS/C1=N\C(=O)Nc1ccc(CCc2ncn(-c3ccc(Br)cc3)n2)cc1

>  <Parameter>
YFM % Control (or Mortality) rating

>  <Reported Value>
A (80-100)

$$$$
>  <Molecule>
CCC(C)Oc1ccc(C)cc1N1C(=O)CS/C1=N\C(=O)Nc1ccc(/C=C/c2ncn(-c3ccc(OC(F)(F)F)cc3)n2)cc1F (centres unmarked)

>  <Parameter>
YFM % Control (or Mortality) rating

>  <Reported Value>
A (80-100)

$$$$
>  <Molecule>
Cc1ccc(C(C)C)c(N2C(=O)CS/C2=N\C(=O)Nc2ccc(CC(C)c3ncn(-c4ccc(OC(F)(F)F)cc4)n3)cc2)c1 (centres unmarked)

>  <Parameter>
YFM % Control (or Mortality) rating

>  <Reported Value>
A (80-100)

$$$$
>  <Molecule>
CCCc1ccc(C)cc1N1C(=O)CS/C1=N\C(=O)Nc1ccc(CCc2ncn(-c3ccc(OC(F)(F)F)cc3)n2)cc1F

>  <Parameter>
YFM % Control (or Mortality) rating

>  <Reported Value>
A (80-100)

$$$$
>  <Molecule>
Cc1ccc(C(C)C)c(N2C(=O)CS/C2=N\C(=O)Nc2ccc(/C=C/c3ncn(-c4ccc(OC(F)(F)F)cc4)n3)cc2)c1

>  <Parameter>
YFM % Control (or Mortality) rating

>  <Reported Value>
A (80-100)

$$$$
>  <Molecule>
CC(C)c1ccccc1N1C(=O)CS/C1=N\C(=O)Nc1ccc(CCc2ncn(-c3ccc(C(F)(F)F)cc3C#N)n2)cc1

>  <Parameter>
YFM % Control (or Mortality) rating

>  <Reported Value>
A (80-100)

$$$$

Would you kindly share the measured YFM % Control (or Mortality) rating for "Cc1ccc(OC(C)(C)C)c(N2C(=O)CS/C2=N\C(=O)Nc2ccc(CCc3ncn(-c4ccc(OC(F)(F)F)cc4)n3)cc2)c1" ?
A (80-100)

Would you kindly share the measured YFM % Control (or Mortality) rating for "Cc1ccc(C(C)C)c(N2C(=O)CS/C2=N\C(=O)Nc2ccc(CCc3ncn(-c4ccc(OC(F)(F)F)cc4)n3)c(F)c2)c1" ?
A (80-100)

====

Test system: Beet Armyworm (Spodoptera exigua, LAPHEG)
Assay: Bioassay on Beet Armyworm (BAW), 128-well diet tray assay
Assay type: in vivo
Measurement Setup: 168 h, 50 μg/cm^2 on artificial diet, second instar larvae, 25° C., five to seven days, average of eight wells, read-out: BAW % Control (or Mortality) rating
Parameter: mortality at 50 µg/cm2

// known answers, use as guide
>  <Molecule>
Cc1ccc(C(C)C)c(N2C(=O)CS/C2=N\C(=O)Nc2ccc(/C=C/c3ncn(-c4ccc(OC(F)(F)F)cc4)n3)cc2C(F)(F)F)c1

>  <mortality at 50 µg/cm2>
50 to 100%

$$$$
>  <Molecule>
Cc1ccc(OC(F)(F)F)c(N2C(=O)CS/C2=N\C(=O)Nc2ccc(/C=C/c3ncn(-c4ccc(OC(F)(F)F)cc4)n3)cc2)c1

>  <mortality at 50 µg/cm2>
50 to 100%

$$$$
>  <Molecule>
Cc1ccc(Cl)c(N2C(=O)CS/C2=N\C(=O)Nc2ccc(/C=C/c3ncn(-c4ccc(OC(F)(F)F)cc4)n3)cc2)c1

>  <mortality at 50 µg/cm2>
50 to 100%

$$$$
>  <Molecule>
Cc1ccc(C(C)C)c(N2C(=O)CS/C2=N\C(=O)Nc2c(F)cc(/C=C/c3ncn(-c4ccc(OC(F)(F)F)cc4)n3)cc2F)c1

>  <mortality at 50 µg/cm2>
50 to 100%

$$$$
>  <Molecule>
COCc1ccc(C)cc1N1C(=O)CS/C1=N\C(=O)Nc1ccc(CCc2ncn(-c3ccc(OC(F)(F)F)cc3)n2)cc1F

>  <mortality at 50 µg/cm2>
50 to 100%

$$$$

Would you kindly share the measured mortality at 50 µg/cm2 for Cc1ccc(C2CC2(F)F)c(N2C(=O)CS/C2=N\C(=O)Nc2ccc(CCc3ncn(-c4ccc(OC(F)(F)F)cc4)n3)cc2F)c1 (stereo not shown) ?
50 to 100%

Would you kindly share the measured mortality at 50 µg/cm2 for "Cc1ccc(C(C)C)c(N2C(=O)CS/C2=N\C(=O)Nc2ccc(CCc3ncn(-c4ccc(OC(F)(F)F)cc4)n3)cc2F)c1" ?
50 to 100%
